Listing of recorded Emax by entry.
target: long isoform of human D2 receptor (Homo sapiens); experiment: cAMP HTRF Agonist Assay (DRD2L PathHunter CHO-K1 cells, forskolin-stimulated); conditions: CHO-K1, read-out: cAMP (agonist mode) Emax

The following molecules have reported results that may help.
O=c1ccc2ccc(OCCCCN3CCc4cc(Cl)ccc4C3)nc2[nH]1 [Compound 59]    10 to 25%
O=C1CCc2ccc(OCCCCN3CCc4nn(-c5ccc(F)cc5)cc4C3)cc2N1 [Compound 37]    < 10%
Cc1cccc(N2CCN(CCCCOc3ccc4cccc(O)c4n3)CC2)c1C [Compound 7]    25 to 50%
CCCOc1cccnc1N1CCN(CCCCOc2ccc3cccc(O)c3n2)CC1 [Compound 11]    < 10%

Now turn to the next molecule.
For reference, reported Emax for Clc1cccc(N2CCN(CCCCOc3cccc(-c4cc[nH]n4)n3)CC2)c1Cl [Compound 46] stands at 50 to 75%

---

Listing of recorded pEC50 by entry.
biological target: long isoform of human D2 receptor (Homo sapiens); test: Arrestin Agonist Assay (DRD2L PathHunter CHO-K1 cells, β-arrestin recruitment)
pEC50: −log10 of the molar value.

The following compounds have reported results that may help.
Cc1cccc(N2CCN(CCCCOc3ccc4cccc(O)c4n3)CC2)c1C    < 5.00
O=C1CCc2ccc(OCCCCN3CCc4sccc4C3)cc2N1    < 5.00
O=C1CCc2ccc(OCCCCN3CCc4cccc(C(F)(F)F)c4C3)nc2N1    < 5.00
O=C1CCc2ccc(OCCCCN3CCc4nn(-c5ccccn5)cc4C3)cc2N1    > 8.00

For reference, reported pEC50 for O=C1NCCc2ccc(OCCCCN3CCc4cc(Cl)ccc4C3)nc2N1 stands at < 5.00

For reference, reported pEC50 for O=C1NCCc2ccc(OCCCCN3CCc4cc(F)ccc4C3)nc2N1 stands at < 5.00

---

Listing of recorded IC50 by entry.
target: long isoform of human D2 receptor (Homo sapiens, UniProt P14416); assay: cAMP HTRF Agonist Assay (DRD2L PathHunter CHO-K1 cells, forskolin-stimulated)
Sequence (P14416 whole entry, canonical isoform): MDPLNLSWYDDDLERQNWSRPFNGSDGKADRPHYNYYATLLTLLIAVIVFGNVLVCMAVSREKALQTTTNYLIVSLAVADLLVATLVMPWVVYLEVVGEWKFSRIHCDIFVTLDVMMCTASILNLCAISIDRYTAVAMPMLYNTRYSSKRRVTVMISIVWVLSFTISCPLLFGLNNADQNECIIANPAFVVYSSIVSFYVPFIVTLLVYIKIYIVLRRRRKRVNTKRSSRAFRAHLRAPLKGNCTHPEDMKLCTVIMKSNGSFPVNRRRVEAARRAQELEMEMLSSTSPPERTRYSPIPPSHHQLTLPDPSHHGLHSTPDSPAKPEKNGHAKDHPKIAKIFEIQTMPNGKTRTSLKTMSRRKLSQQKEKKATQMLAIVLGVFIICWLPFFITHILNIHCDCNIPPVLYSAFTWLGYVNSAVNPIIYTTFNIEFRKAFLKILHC

The following compounds have reported results that may help.
O=C1CCc2ccc(OCCCCN3CCc4nccnc4C3)cc2N1 [Compound 25]    1 to 10 µM
c1ccc(N2CCN(CCCCOc3ccc4cn[nH]c4c3)CC2)nc1 [Compound 94]    < 0.01 µM
O=C1CCc2ccc(OCCCCN3CCc4nn(-c5ccccc5)cc4C3)cc2N1 [Compound 30]    0.01 to 0.1 µM
CN(C)c1ncnc2c1CCN(CCCCOc1ccc3c(c1)NC(=O)CC3)C2 [Compound 29]    0.01 to 0.1 µM

Now turn to the next compound.
For reference, reported IC50 for O=C1CCc2ccc(OCCCCN3CCc4cc(F)ccc4C3)nc2N1 [Compound 72] stands at > 10 µM

---

Listing of recorded Emax by entry.
biological target: long isoform of human D2 receptor (Homo sapiens); assay: Arrestin Agonist Assay (DRD2L PathHunter CHO-K1 cells, β-arrestin recruitment); conditions: CHO-K1, read-out: β-arrestin (agonist mode) Emax

The following compounds have reported results that may help.
Cn1cc2c(n1)CCN(CCCCOc1ccc3c(c1)NC(=O)CC3)C2    25 to 50%
O=C1CCc2ccc(OCCCCN3CCc4cc(Cl)ccc4C3)nc2N1    < 10%
Oc1cccc2ccc(OCCCCN3CCN(c4cccc(Cl)c4Cl)CC3)nc12    10 to 25%
CCS(=O)(=O)Nc1cccc(OCCCCN2CCc3ccccc3C2)n1    < 10%
O=C1CCc2ccc(OCCCCN3CCc4sccc4C3)cc2N1    < 10%

For reference, reported Emax for Cc1cccc(N2CCN(CCCCOc3ccc4cn[nH]c4c3)CC2)c1C stands at < 10%

---

molecular target: long isoform of human D2 receptor (Homo sapiens, UniProt P14416); assay: cAMP HTRF Agonist Assay (DRD2L PathHunter CHO-K1 cells, forskolin-stimulated); conditions: CHO-K1, read-out: cAMP (agonist mode) Emax
experimental_readout: Emax

The following molecules have reported results that may help.
Oc1cccc2ccc(OCCCCN3CCN(c4cccc(Cl)c4Cl)CC3)nc12    25 to 50%
c1ccc2c(N3CCN(CCCCOc4ccc5cn[nH]c5c4)CC3)cccc2c1    25 to 50%

For reference, reported Emax for O=C1CCc2ccc(OCCCCN3CCc4c(Cl)cccc4C3)nc2N1 stands at > 75%

For reference, reported Emax for CCn1cc2c(n1)CCN(CCCCOc1ccc3c(c1)NC(=O)CC3)C2 stands at 50 to 75%

For reference, reported Emax for O=C1CCc2ccc(OCCCCN3CCc4nn(-c5ccccc5F)cc4C3)cc2N1 stands at < 10%

---

Listing of recorded pIC50 by entry.
target: long isoform of human D2 receptor (Homo sapiens, UniProt P14416); assay: Arrestin Antagonist Assay (DRD2L PathHunter CHO-K1 cells, vs EC80 dopamine)
pIC50: −log10 of the molar value.

For reference, reported pIC50 for O=C1CCc2ccc(OCCCCN3CCc4cc(Cl)ccc4C3)nc2N1 [Compound 75] stands at 7.00 to 8.00

---

Listing of recorded IC50 by entry.
target: long isoform of human D2 receptor (Homo sapiens); assay: Arrestin Antagonist Assay (DRD2L PathHunter CHO-K1 cells, vs EC80 dopamine)

O=C1CCc2ccc(OCCCCN3CCc4cccc(C(F)(F)F)c4C3)nc2N1 [Compound 79]    100 to 1000 nM

For reference, reported IC50 for Cc1ccc2c(c1)CN(CCCCOc1ccc3ccc(=O)[nH]c3n1)CC2 [Compound 65] stands at 10 to 100 nM

For reference, reported IC50 for N#Cc1ccc2c(c1)CCN(CCCCOc1ccc3cccc(O)c3n1)C2 [Compound 15] stands at 1000 to 10000 nM

For reference, reported IC50 for O=c1ccc2ccc(OCCCCN3CCc4cc(F)ccc4C3)nc2[nH]1 [Compound 56] stands at < 10 nM

For reference, reported IC50 for O=C1NCCc2ccc(OCCCCN3CCc4sccc4C3)nc2N1 [Compound 86] stands at 10 to 100 nM

---

target: long isoform of human D2 receptor (Homo sapiens, UniProt P14416); test: Arrestin Agonist Assay (DRD2L PathHunter CHO-K1 cells, β-arrestin recruitment); settings: CHO-K1, read-out: β-arrestin (agonist mode) Emax
Listing of recorded Emax by entry.

c1ccc2c(N3CCN(CCCCOc4ccc5cn[nH]c5n4)CC3)cccc2c1    10 to 25%
O=C1CCc2ccc(OCCCCN3CCc4ccsc4C3)cc2N1    < 10%
Cc1cccc(N2CCN(CCCCOc3ccc4cccc(O)c4n3)CC2)c1C    < 10%

# Emax measured on long isoform of human D2 receptor (Homo sapiens, UniProt P14416) for item Oc1cccc2ccc(OCCCCN3CCc4ccsc4C3)nc12 = < 10%

---

biological target: long isoform of human D2 receptor (Homo sapiens); experiment: cAMP HTRF Agonist Assay (DRD2L PathHunter CHO-K1 cells, forskolin-stimulated)
Listing of recorded IC50 by entry.

CS(=O)(=O)Nc1cccc(OCCCCN2CCc3ccccc3C2)n1 [Compound 42]    > 10 µM
O=C1CCc2ccc(OCCCCN3CCc4ccccc4C3)nc2N1 [Compound 68]    < 0.01 µM
O=c1ccc2ccc(OCCCCN3CCc4c(cccc4C(F)(F)F)C3)nc2[nH]1 [Compound 61]    < 0.01 µM
O=C1CCc2ccc(OCCCCN3CCc4ccccc4C3)cc2N1 [Compound 91]    < 0.01 µM
Oc1cccc2ccc(OCCCCN3CCc4ccsc4C3)nc12 [Compound 19]    > 10 µM
Cc1cccc(N2CCN(CCCCOc3ccc4cccc(O)c4n3)CC2)c1C [Compound 7]    0.01 to 0.1 µM
Cc1cccc(N2CCN(CCCCOc3ccc4cn[nH]c4n3)CC2)c1C [Compound 3]    0.01 to 0.1 µM
CCOc1cccnc1N1CCN(CCCCOc2ccc3cccc(O)c3n2)CC1 [Compound 10]    < 0.01 µM

For reference, reported IC50 for CCn1cc2c(n1)CCN(CCCCOc1ccc3c(c1)NC(=O)CC3)C2 [Compound 34] stands at 0.1 to 1 µM

For reference, reported IC50 for O=c1ccc2ccc(OCCCCN3CCc4cccc(C(F)(F)F)c4C3)nc2[nH]1 [Compound 63] stands at > 10 µM

For reference, reported IC50 for O=C1NCCc2ccc(OCCCCN3CCc4sccc4C3)nc2N1 [Compound 86] stands at > 10 µM

For reference, reported IC50 for COc1cccnc1N1CCN(CCCCOc2ccc3cccc(O)c3n2)CC1 [Compound 9] stands at < 0.01 µM

For reference, reported IC50 for O=c1ccc2ccc(OCCCCN3CCc4nn(-c5ccccn5)cc4C3)nc2[nH]1 [Compound 67] stands at 0.01 to 0.1 µM

---

Listing of recorded Emax by entry.
biological target: long isoform of human D2 receptor (Homo sapiens); assay: Arrestin Agonist Assay (DRD2L PathHunter CHO-K1 cells, β-arrestin recruitment); settings: CHO-K1, read-out: β-arrestin (agonist mode) Emax

The following molecules have reported results that may help.
O=C1CCc2ccc(OCCCCN3CCc4cc(F)ccc4C3)nc2N1    < 10%
COc1ccc2c(c1)CCN(CCCCOc1ccc3c(n1)NC(=O)CC3)C2    < 10%
O=c1ccc2ccc(OCCCCN3CCc4sccc4C3)nc2[nH]1    < 10%
Oc1cccc2ccc(OCCCCN3CCc4cc(Cl)ccc4C3)nc12    < 10%
N#Cc1cccnc1N1CCN(CCCCOc2ccc3cccc(O)c3n2)CC1    25 to 50%
CN(C)c1ncnc2c1CCN(CCCCOc1ccc3c(c1)NC(=O)CC3)C2    25 to 50%
c1ccc(N2CCN(CCCCOc3ccc4cn[nH]c4n3)CC2)nc1    > 75%
CCC(=O)Nc1cccc(OCCCCN2CCc3ccccc3C2)n1    < 10%

Now turn to the next molecule.
For reference, reported Emax for Cc1ccc2c(c1)CN(CCCCOc1ccc3ccc(=O)[nH]c3n1)CC2 stands at < 10%
